Kindly state PBM binding z-score for each of the entries shown.
Test system: PPARg homodimer (NR concentration 180 nM)
Assay: PBM binding z-score (relative to random genomic background probes); higher = stronger binding; sequences stand for … in GC…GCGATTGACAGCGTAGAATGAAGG
Write the number on its own, no unit after it.

Please report the recorded PBM binding z-score for TCTATTAGTCGATTAGGGCAACCGAAACAGCGGA .
0.0705

Please report the recorded PBM binding z-score for CGTCCAAGGTCGGCAGGTCAGTGAAAGCGACGTG .
0.288

Please report the recorded PBM binding z-score for TAGCCGAGGTCATGCGGGCCAGTATAGTGTCGGC .
2.81

Please report the recorded PBM binding z-score for TAGCCTAGGTCATGGGCCAGTACACCACGCGAAC .
1.72

Please report the recorded PBM binding z-score for GGAACGAGGGCAAAGTTGAAAGCATCTGTCGACG .
0.811

Please report the recorded PBM binding z-score for ACAGACAGGTGAGTGAAGGTAATTCAGCTGGACG .
-0.206

Please report the recorded PBM binding z-score for GCAGACAGGTGAAACGCAGGTAACACAGGGTGGC .
-0.0973

Please report the recorded PBM binding z-score for TCATATAGGTAAACAGGGGAAAGTCCGTAAGTTA .
1.18

Please report the recorded PBM binding z-score for CAAACTAGGTCAAGGTAAAAGTCGGTTTGTGCCA .
1.61

Please report the recorded PBM binding z-score for ACTAGCAGGCCAAGTTTGGTTCACTCAAACAAAG .
-0.521

Please report the recorded PBM binding z-score for AATACAGGGTCATAGTAGGCCAGAGTACGCACAG .
2.67

Please report the recorded PBM binding z-score for TCCTGTAGATCAACAGGAGGTTAAGAAAGATCGA .
0.0427

Please report the recorded PBM binding z-score for CGTCAAAGTTCAACTAAGGTAACGTTAAGCACGC .
3.26

Please report the recorded PBM binding z-score for GCGACTGGCGCAAAGCAGGTTACCATAAGGTTGG .
-0.736

Please report the recorded PBM binding z-score for ACTATTAATTGAGACGAGGGCAACCGATAGGTTG .
2.25

Please report the recorded PBM binding z-score for ACTATTAGTTGAGCCGAGGGCAACCGATAGGTTG .
-0.122

Please report the recorded PBM binding z-score for AGAATGAGGTTAAGAACAGGGAAACAGAATACAT .
0.811

Please report the recorded PBM binding z-score for TCTTGTAGATCAGCACGTTAAGAAAGCTGGCCAA .
-0.311

Please report the recorded PBM binding z-score for CTACCAAGGTGAACAAGTTCGTTGATTACTATTC .
0.895

Please report the recorded PBM binding z-score for ACAAGCAGGCCAAGGGTCACTCAAGATTAGTCCG .
2.21

Please report the recorded PBM binding z-score for CCTATTTGGTCAAGGTCACACACGCTATAGGTAC .
3.05

Please report the recorded PBM binding z-score for CGAACCAGGTCATCCAGGACAGTGAATACATTGA .
2.01

Please report the recorded PBM binding z-score for GTTTGTAGATCAAGGTTAAGAAAGACTAAGCTAA .
1.43

Please report the recorded PBM binding z-score for TATACAGGGTCAAAGGCCAGAGAACGAATGTCGA .
2.58

Please report the recorded PBM binding z-score for ATCGAAAGCTCGTGAGGTGAGTATACAGAAAGGC .
-0.405

Please report the recorded PBM binding z-score for CGTCCAAGGTAAGCAGGTCAGTGAAAGCGACGTG .
0.421

meta.source: the supplement of paper PMC6555819
